Reference source: patent US4061645A

# Test system: Damping-off Fungi
# Experiment: Cotton seed disinfection, normal compost soil (Example 6)
# Assay type: in vivo
# Protocol Conditions: 100 mg active ingr. per kg of seed; 10% formulation; 15 days
# Description: Cotton seeds disinfected with 10% formulations were seeded in normal compost soil (Damping-off Fungi), 25 grains per concentration. After a cultivation time of 15 days at 22°-25° C, the number of germinated sound cotton seedlings and their weight as fresh plants were determined.
Readout: Weight of fresh plant
Value and unit, in that order.

Study these solved cases before continuing.
Q: Observed Weight of fresh plant on Damping-off Fungi for C[S+]([O-])c1nnc(C(Cl)Cl)s1 (stereo not shown) [Compound 3] , please.
Result: 29 g

Q: What Weight of fresh plant appears in the records for this compound with Damping-off Fungi? C[S+]([O-])c1nnc(C(Cl)(Cl)Cl)s1 (stereo not shown) [Compound 8]
Result: 29 g

Q: Can you look up Weight of fresh plant on Damping-off Fungi for CS(=O)(=O)c1nnc(C(Cl)Cl)s1 [Compound 17] ?
Result: 23 g

Okay, now this compound:
Q: Quick check: Weight of fresh plant on Damping-off Fungi, item CS(=O)(=O)c1nnc(C(Cl)(Cl)Cl)s1 [Compound 21] ?
Result: 33 g

* * *

# System: Rhizoctonia solani
# Experiment: Rhizoctonia solani infested compost soil, marrow peas (Example 3)
# Assay type: in vivo
# Protocol Conditions: 20 mg active ingr. per liter of soil; of 25 grains
We begin with a simple list: items and their reported Number of sound peas after 3 wks..
Give only the figure.

Q: Find the measured Number of sound peas after 3 wks.: item CS(=O)(=O)c1nnc(C(Cl)(Cl)Cl)s1 [Compound 21] , target or system Rhizoctonia solani.
Result: 24

Q: Quick check: Number of sound peas after 3 wks. on Rhizoctonia solani, item CS(=O)(=O)c1nnc(C(Cl)Cl)s1 [Compound 17] ?
Result: 23

Q: For the record C[S+]([O-])c1nnc(C(Cl)(Cl)Cl)s1 (stereo not shown) [Compound 8] , what value of Number of sound peas after 3 wks. is listed for Rhizoctonia solani?
Result: 24

Q: Which Number of sound peas after 3 wks. is reported with Rhizoctonia solani for this entry: C[S+]([O-])c1nnc(C(Cl)Cl)s1 (stereo not shown) [Compound 3] ?
Result: 2

Q: Find Number of sound peas after 3 wks. (Rhizoctonia solani) for the entry CC[S+]([O-])c1nnc(C(Cl)(Cl)Cl)s1 (stereo not shown) [Compound 9]
Result: 22

Q: Look up Number of sound peas after 3 wks. with Rhizoctonia solani for this compound: CCCS(=O)(=O)c1nnc(C(Cl)(Cl)Cl)s1 [Compound 23]
Result: 21

We now examine a further compound.
Q: Query the reported Number of sound peas after 3 wks. for Rhizoctonia solani; item: COc1cc(Cl)c(OC)cc1Cl [1,4-dichloro-2,5-dimethoxy-benzene, 1,4-dichloro-2,5-dimethoxybenzene, reference compound]
Result: 0

* * *

diameter of the colonies for assorted molecules
# Test system: Stemphylium ilicis
# Experiment: Agar test (Example 7), Stemphylium
# Type: cell-based
# Protocol Conditions: 10 ppm; 5 days at 22° C; control 100
Give your result in mm as a bare value.

Q: Field request: diameter of the colonies | item: CS(=O)(=O)c1nnc(C(Br)Br)s1
Result: 0

Alright, here's another molecule for you.
Q: Param item = CCCS(=O)(=O)c1nnc(C(Cl)Cl)s1 ; retrieve measured diameter of the colonies.
Result: 0

* * *

# Test system: Helminthosporium sativum
# Experiment: Agar test (Example 7), Helminthosporium
# Format: cell-based
# Protocol Conditions: 10 ppm; 5 days at 22° C; control 100
Overview of recorded diameter of the colonies for various compounds

Q: Return reported diameter of the colonies; argument: CCC[S+]([O-])c1nnc(C(Cl)(Cl)Cl)s1 (stereo not drawn)
Result: 0 mm

Q: // diameter of the colonies lookup, key: C[S+]([O-])c1nnc(C(Cl)(Cl)Cl)s1 (stereo not drawn)
Result: 0 mm

Q: Which value of diameter of the colonies has been reported for CCCCCCCS(=O)(=O)c1nnc(C(Cl)(Cl)Cl)s1 in the records?
Result: 0 mm

Q: Look at this compound and give its reported diameter of the colonies. CCCCC[S+]([O-])c1nnc(C(Cl)Cl)s1 (stereo not drawn)
Result: 0 mm

Q: If you can, please state the reported diameter of the colonies value of CCCCS(=O)(=O)c1nnc(C(Cl)(Cl)Cl)s1 .
Result: 0 mm

Q: Return reported diameter of the colonies; argument: CCCCCCS(=O)(=O)c1nnc(C(Cl)(Cl)Cl)s1
Result: 0 mm

Q: diameter of the colonies for CC[S+]([O-])c1nnc(C(Cl)(Cl)Cl)s1 (stereo not drawn) ?
Result: 0 mm

Q: Give the measured diameter of the colonies of CCCS(=O)(=O)c1nnc(C(Cl)Cl)s1 .
Result: 0 mm

Q: Reported diameter of the colonies for CC(C)S(=O)(=O)c1nnc(C(Cl)(Cl)Cl)s1 : what is it?
Result: 0 mm

Q: // returns reported diameter of the colonies for input CS(=O)(=O)c1nnc(C(Cl)Cl)s1
Result: 0 mm

New cases:
Q: Which diameter of the colonies reading was recorded for the compound S=C([S-])NCCNC(=S)[S-].[Zn+2] [Zinc ethylene-bis-dithiocarbamate, zinc-ethylene-bis-dithiocarbamate, reference compound] ?
Result: 50 mm

Q: Which value of diameter of the colonies has been reported for CS(=O)(=O)c1nnc(C(Cl)(Cl)Cl)s1 in the records?
Result: 0 mm

* * *

# System: Rhizoctonia solani
# Experiment: Rhizoctonia solani infested compost soil, marrow peas (Example 3)
# Assay type: in vivo
# Protocol Conditions: 10 mg active ingr. per liter of soil; of 25 grains
# Number of sound peas after 3 wks. per entry

Q: Which measured Number of sound peas after 3 wks. value corresponds to C[S+]([O-])c1nnc(C(Cl)(Cl)Cl)s1 (stereo not shown) ?
Result: 21

Q: Sample CS(=O)(=O)c1nnc(C(Cl)(Cl)Cl)s1 — what was its Number of sound peas after 3 wks.?
Result: 17

Q: Which Number of sound peas after 3 wks. value belongs to COc1cc(Cl)c(OC)cc1Cl [1,4-dichloro-2,5-dimethoxy-benzene, 1,4-dichloro-2,5-dimethoxybenzene, reference compound] ?
Result: 0

Q: What value of Number of sound peas after 3 wks. has been recorded for this entry: CC[S+]([O-])c1nnc(C(Cl)(Cl)Cl)s1 (stereo not shown)
Result: 22

***
Q: Item under review: CS(=O)(=O)c1nnc(C(Cl)Cl)s1 . Reported Number of sound peas after 3 wks.?
Result: 0

Q: Which measured Number of sound peas after 3 wks. value corresponds to CCCS(=O)(=O)c1nnc(C(Cl)(Cl)Cl)s1 ?
Result: 13

Q: Quick one: Number of sound peas after 3 wks. of C[S+]([O-])c1nnc(C(Cl)Cl)s1 (stereo not shown) ?
Result: 0

* * *

# Test system: Botrytis cinerea
# Experiment: Agar test (Example 7), Botrytis
# Format: cell-based
# Protocol Conditions: 10 ppm; 5 days at 22° C; control 100
The following compounds are listed with their measured diameter of the colonies values.
// return numeric value only (unit: mm, not printed)

Solved entries (count: 5):
Q: Tell me the measured diameter of the colonies of CS(=O)(=O)c1nnc(C(Cl)Cl)s1 [Compound 17] , please.
Result: 0

Q: Given the compound C[S+]([O-])c1nnc(C(Cl)Cl)s1 (stereo not shown) [Compound 3] , what is its reported diameter of the colonies?
Result: 36

Q: Sample CCC[S+]([O-])c1nnc(C(Cl)(Cl)Cl)s1 (stereo not shown) [Compound 10] — what was its diameter of the colonies?
Result: 0

Q: Fill in the blank: the reported diameter of the colonies of CCCCS(=O)(=O)c1nnc(C(Cl)(Cl)Cl)s1 [Compound 25] is ____.
Result: 0

Q: I'd like to know its diameter of the colonies. The compound in question is CCCS(=O)(=O)c1nnc(C(Cl)(Cl)Cl)s1 [Compound 23]
Result: 0

***
Q: Given the compound CCS(=O)(=O)c1nnc(C(Cl)(Cl)Cl)s1 [Compound 22] , what is its reported diameter of the colonies?
Result: 0

Q: Give the measured diameter of the colonies of C[S+]([O-])c1nnc(C(Cl)(Cl)Cl)s1 (stereo not shown) [Compound 8] .
Result: 0

* * *

# System: Asperqilus niger
# Experiment: Agar test (Example 7), Aspergillus
# Type: cell-based
# Protocol Conditions: 10 ppm; 5 days at 22° C; control 100
# Description: The fungicidal action of the agents according to the invention was tested in artificial nutrient media against plant-pathogenic fungi in Petri dishes (agar test). The procedure was to sterilize the medium consisting of 2% malt extract and 1.5% agar-agar powder. Before the solidification of the medium, the active substances were added to it, mixing thoroughly, so that the medium received 10 parts of active substance per million (ppm). […]
Readout: diameter of the colonies (mm)
Return type: number; implicit unit mm.

Q: // returns reported diameter of the colonies for input CCCCCCCCS(=O)(=O)c1nnc(C(Cl)(Cl)Cl)s1
Result: 19

Lab note: next compound to report on.
Q: For CCC[S+]([O-])c1nnc(C(Cl)(Cl)Cl)s1 (centres unmarked) , what is its reported diameter of the colonies?
Result: 0

* * *

# Tested on: Pythium ultimum
# Experiment: Pythium ultimum infested compost soil, marrow peas (Example 2)
# Format: in vivo
# Protocol Conditions: 10 mg active ingr. per liter of soil; 3 weeks
Hi! Just check whether Weight of fresh plant is below 20 g. Below gives True, equal or above gives False.

Solved entries (count: 3):
Q: Does this molecule meet the criterion Weight of fresh plant < 20 g? C[S+]([O-])c1nnc(C(Cl)(Cl)Cl)s1 (stereo not drawn)
Result: True

Q: Report whether reported Weight of fresh plant is lower than 20 g (strictly) for CS(=O)(=O)c1nnc(CBr)s1
Result: True

Q: Confirm or reject: Weight of fresh plant of C[S+]([O-])c1nnc(C(Cl)Cl)s1 (stereo not drawn) lies strictly below 20 g
Result: False

Now look at this one.
Q: Does the reported Weight of fresh plant of CS(=O)(=O)c1nnc(C(Cl)Cl)s1 stay below 20 g?
Result: False
